# Extraction rate [after 1 h] listing for each entry below
tested on: cytochromes P-45011β and P-450scc; test: Extraction of cytochromes P-45011β and P-450scc from mitochondrions of the bovine suprarenal cortex, and inactivation of the proteins; conditions: proteins 20 mg/ml, detergent 15 mg/ml, pH 7.4, after 1 h
READOUT NAME: Extraction rate [after 1 h]

MOLECULE	OBSERVED RESULT
C[C@H](CCC(=O)O)[C@H]1CC[C@H]2[C@@H]3[C@H](O)C[C@@H]4C[C@H](O)CC[C@]4(C)[C@H]3C[C@H](O)[C@]12C [sodium cholate, reference compound]	0%
CCCCCCCCO[C@@H]1O[C@H](CO)[C@@H](O)[C@H](O)[C@H]1O [1-octyl-β-D-glucopyranoside, reference compound]	0%
CCCCCCCSC1O[C@H](CO)[C@@H](O)[C@H](O)[C@H]1O (stereo partly drawn) [1-heptyl-1-thio-α,β-D-glucopyranoside]	0%
CCCCCCCCSC1O[C@H](CO)[C@@H](O[C@@H]2O[C@H](CO)[C@H](O)[C@H](O)[C@H]2O)[C@H](O)[C@H]1O (stereo partly drawn) [1-octyl-1-thio-α,β-lactoside]	0%
CCCCCCCCSC1O[C@H](CO)[C@@H](O[C@H]2O[C@H](CO)[C@@H](O)[C@H](O)[C@H]2O)[C@H](O)[C@H]1O (stereo partly drawn) [1-octyl-1-thio-α,β-maltoside]	0%
CCCCCCCCS[C@@H]1O[C@H](CO)[C@@H](O)[C@H](O)[C@H]1O [1-octyl-1-thio-β- -- D-glucopyranoside, 1-octyl-1-thio-β-D-glucopyranoside, reference compound]	0%

---

test: Critical micelle concentration (CMC), Tsuchiya and Saito method; assay type: physicochemical; conditions: α,β anomer mixtures
# Critical micelle concentration (CMC) listing for each entry below
READOUT NAME: Critical micelle concentration (CMC) (mM)

COMPOUND	READOUT NAME	OBSERVED RESULT
CCCCCCCCSC1O[C@H](CO)[C@@H](O[C@@H]2O[C@H](CO)[C@H](O)[C@H](O)[C@H]2O)[C@H](O)[C@H]1O (stereo partly drawn) [1-octyl-1-thio-α,β-lactoside]	Critical micelle concentration (CMC)	0.2
CCCCCCCCSC1O[C@H](CO)[C@@H](O)[C@H](O)[C@H]1O (stereo partly drawn) [1-octyl-1-thio-α,β- -- D-glucopyranoside, 1-octyl-1-thio-α,β-D-glucopyranoside]	Critical micelle concentration (CMC)	3.0
CCCCCCCCSC1O[C@H](CO)[C@@H](O[C@@H]2O[C@H](CO)[C@@H](O)[C@H](O)[C@H]2O)[C@H](O)[C@H]1O (stereo partly drawn) [1-octyl-1-thio-α,β-cellobioside]	Critical micelle concentration (CMC)	0.2
CCCCCCCCSC1O[C@H](CO)[C@@H](O[C@H]2O[C@H](CO)[C@@H](O)[C@H](O)[C@H]2O)[C@H](O)[C@H]1O (stereo partly drawn) [1-octyl-1-thio-α,β-maltoside]	Critical micelle concentration (CMC)	0.2
CCCCCCCSC1O[C@H](CO)[C@@H](O)[C@H](O)[C@H]1O (stereo partly drawn) [1-heptyl-1-thio-α,β-D-glucopyranoside]	Critical micelle concentration (CMC)	4.1
